- targetOrSystem: sOGT (Homo sapiens (Human))
- Sequence (O15294 382-1046, species assumed): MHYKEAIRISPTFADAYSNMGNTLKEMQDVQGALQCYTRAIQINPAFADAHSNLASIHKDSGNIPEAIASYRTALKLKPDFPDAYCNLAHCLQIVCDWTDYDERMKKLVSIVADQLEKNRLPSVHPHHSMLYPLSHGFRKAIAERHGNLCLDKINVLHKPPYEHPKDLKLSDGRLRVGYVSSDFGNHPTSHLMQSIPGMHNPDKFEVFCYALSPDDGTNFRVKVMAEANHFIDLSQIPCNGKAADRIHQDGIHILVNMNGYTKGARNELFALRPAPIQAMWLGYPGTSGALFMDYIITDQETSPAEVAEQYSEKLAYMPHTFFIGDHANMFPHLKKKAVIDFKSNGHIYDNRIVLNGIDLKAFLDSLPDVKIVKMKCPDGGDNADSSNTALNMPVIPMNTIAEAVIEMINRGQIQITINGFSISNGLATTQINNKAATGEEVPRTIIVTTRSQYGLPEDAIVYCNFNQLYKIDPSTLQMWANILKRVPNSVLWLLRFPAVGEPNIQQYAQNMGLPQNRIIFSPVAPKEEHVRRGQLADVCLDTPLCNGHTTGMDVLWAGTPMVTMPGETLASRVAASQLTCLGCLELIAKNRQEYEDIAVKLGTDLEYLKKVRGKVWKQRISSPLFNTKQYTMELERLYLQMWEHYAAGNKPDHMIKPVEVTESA
pKi: −log10 of the molar value.
Threshold check on pKi: at or above 5 gives 1.0, strictly below gives 0.0.

Use the examples below as a reference point.
Problem: Item CCc1cccc(C)c1NC(=O)C(NS(=O)(=O)c1ccc2c(c1)CCC(=O)N2)c1ccccc1 (centres unmarked) with pKi of 5 or above?
Result: 0.0

Problem: Entry to check: Cc1ccc(NC(=O)C(NS(=O)(=O)c2ccc3c(c2)CCC(=O)N3)c2ccccc2)c(Br)c1 (centres unmarked)
Result: 0.0

Problem: What do you get for CN(CC(=O)Nc1nc2ccc(Cl)cc2s1)S(=O)(=O)c1ccc2[nH]c(=O)ccc2c1 ?
Result: 0.0

Problem: Another compound: CC(C)N(Cc1ccccc1)C(=O)C(NS(=O)(=O)c1ccc2c(c1)CCC(=O)N2)c1ccccc1 (centres unmarked) [drawing 86]
Result: 1.0

Problem: Request: O=C(C(NS(=O)(=O)c1ccc2[nH]c(=O)ccc2c1)c1ccccc1)N(Cc1ccco1)Cc1cccs1 (centres unmarked) [drawing 100]
Result: 1.0

Others:
Problem: Check if pKi >= 5 (inclusive). Item: O=C1CCc2cc(S(=O)(=O)NC(C(=O)NCc3ccc(Cl)cc3)c3ccccc3)ccc2N1 (centres unmarked)
Result: 1.0

Problem: Please answer likewise for COc1cccc(N2CCN(C(=O)C(NS(=O)(=O)c3ccc4c(c3)CCC(=O)N4)c3ccccc3)CC2)c1 (centres unmarked)
Result: 1.0
